# target_of_assay: T1, X11β PDZ-GST fusion protein (Rattus norvegicus (Rat), UniProt O35431 560-745)
# T1 construct: Order of GST and PDZ part and limits not seen in the excerpts
# T1 chain: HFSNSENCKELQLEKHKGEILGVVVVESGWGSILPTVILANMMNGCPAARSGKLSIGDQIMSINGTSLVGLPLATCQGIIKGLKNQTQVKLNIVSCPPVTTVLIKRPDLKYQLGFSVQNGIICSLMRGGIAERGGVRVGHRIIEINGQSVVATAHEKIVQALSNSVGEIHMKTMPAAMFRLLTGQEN
# experiment_notes: A/G assays
Ends that are not written are not given here. * marks the point of attachment. Biotin = O=C1N[C@H]2[C@H](CS[C@H]2CCCCC(=O)*)N1
experimental_readout: binding result

[[record]]
binder = "Biotin-QATSENGHSARQHVVADTEL [CD34 C-terminal peptide AA7L, biotinylated]"
experimental_value = "no binding"

[[record]]
binder = "Biotin-SVFSIPTLWSPWPPSSSSQL (also called CD3η; CD3-eta) [CD3n C-terminal peptide AA4L, biotinylated]"
experimental_value = "no binding"

[[record]]
binder = "Biotin-PKQANGGAYQKPTKQEEFYA (also called CD138 (syndecan-1); CD138 (syndecan)) [CD138 C-terminal peptide AA18L, biotinylated]"
experimental_value = "no binding"

[[record]]
binder = "Biotin-SSSQSLESDGSYQKPSYIL (Only the last four residues are seen in the excerpts) [CD62E C-terminal peptide AA48L]"
experimental_value = "no binding"

[[record]]
binder = "Biotin-SMQPDNSSDSDYDLHGAQRL (Only the last four residues are seen in the excerpts) [CD5 C-terminal peptide AA49L]"
experimental_value = "no binding"

[[record]]
binder = "Biotin-SSGGRARHSYHHPDQDHWC (Marked (S), sticky peptide with high background; also called V-gated Ca2+ channel (S)) [V-gated Ca2+ channel C-terminal peptide AA46L]"
experimental_value = "no binding"


Please look at the following binder next.
input: Item Biotin-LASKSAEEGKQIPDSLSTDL [DOCK2 C-terminal peptide AA40L, biotinylated] has what recorded binding result?
output: no binding
